Where these numbers come from: PubChem BioAssay

Assay: viability gain of MRP-1-high H69AR cells under doxorubicin, pilot screen, MRP-1 activator project, CellTiter-Glo, duplicate (AID 807);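 further: compound pretreatment 18-22 h then 72 h combined with doxorubicin; 0% = doxorubicin alone and 100% = vehicle without doxorubicin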
Settings: H69AR viability with doxorubicin, CellTiter-Glo luminescence; at 10 µM; stronger effect = higher value
Quick list: viability increase per entry.
Dear colleague, please return just the value in %, with no unit written.

INSERT INTO assay_data (molecule, measured_quantity, number) VALUES
  ('O=C(O)C1C2C=CC3(CN(Cc4ccco4)C(=O)C13)O2 (stereo unspecified)', 'viability increase', -0.96);

Query block: Consider the molecule CCOC(=O)N1CCC(NC(=O)c2cc3c(C)nc4ccccc4c3o2)CC1 and give its recorded viability increase.
Result block: -3.16

Query block: Please report viability increase for the following molecule: CC1CCCCC1NC(=O)c1ccc(CNc2c(N3CCCC3)c(=O)c2=O)cc1 (stereo unspecified)
Result block: -0.12
